system: HUVEC cells; assay: Transfection uptake of FAM-labelled oligonucleotides (FACS); assay type: cell-based, Human; settings: Table 66, 4 hr post-transfection, 200 nM
Recorded % transfected, M3, one value per entry.
Please reply with the bare figure in % and do not write the unit itself.

Consider the following illustrative entries.
>>> reported_value("GsTsAsAsTsTsGsCsGsGsCsAsAsGsAsAsGsAsAsTsTsGsTsTsTsCsTsGsT (GTAATTGCGGCAAGAAGAATTGTTTCTGT; chemistry not fully specified) [SEQ1-PTO]")
63
>>> reported_value("GTAATTGCGGCAAGAAGAATTGTTTCTGT (DNA, phosphodiester; FAM fluorescent label attached, position not given here) [SEQ1-O]")
42
>>> reported_value("AsCsCsCsAsTsGsTsTsGsCsCsTsGsGsGsCsAsCsC (ACCCATGTTGCCTGGGCACC; chemistry not fully specified) [SEQ4-PTO]")
44

Let's switch to this substance now.
Exam item: Lab request: please report % transfected, M3 under test system HUVEC cells for ACCCATGTTGCCTGGGCACC (chemistry not fully specified) [SEQ4-Q]
Marked response: 34

---

conditions: bovine
Where a SMILES comes first, the peptide text is derived from it.
Measure: half-life

Exam item: Which half-life is listed for CC(C)C[C@H](NC(=O)[C@H](Cc1ccccc1)NC(=O)[C@H](CS)NC(=O)[C@H](CC(=O)O)NC(=O)[C@@H](N)C(C)C)C(=O)N[C@@H](CO)C(=O)N[C@@H](CCCNC(=N)N)C(=O)N1CCC[C@H]1C(=O)N[C@H](C(=O)N[C@@H](CCC(=O)O)C(=O)N[C@@H](CCCCN)C(=O)N[C@H](C(=O)O)[C@@H](C)O)[C@@H](C)O [Peptide5] (H-VDCFLSRPTEKT-OH) ?
Marked response: ~2 h

---

tested on: HUVEC cells; experiment: Transfection uptake of FAM-labelled oligonucleotides (FACS); format: cell-based, Human; conditions: Table 66, 4 hr post-transfection, 200 nM
Measure: % transfected, M2 (%)
Please reply with the bare figure in % and do not write the unit itself.

Exam item: Lab request: please report % transfected, M2 under test system HUVEC cells for GTAATTGCGGCAAGAAGAATTGTTTCTGT (DNA, phosphodiester; FAM fluorescent label attached, position not given here) [SEQ1-O]
Marked response: 56

---

Recorded Avg % KD qPCR, one value per entry.
test system: Connexin 43 RNA; experiment: Connexin 43 knockdown by qPCR in HUVEC; format: cell-based, human; conditions: HUVEC; phosphorothioate backbone ASN
Please reply with the bare figure in % and do not write the unit itself.

Consider the following illustrative entries.
>>> reported_value("TCTCCCCAGGCTGACTCAAC (chemistry not given here) [SEQ10/37503]")
77
>>> reported_value("CGCTGGTCCACAATGGCTAG (chemistry not given here) [SEQ6/133705]")
83
>>> reported_value("CAGAAGCGCACATGAGAGAT (chemistry not given here) [SEQ8/47001]")
81
>>> reported_value("GCTGGCTCTGCTTGAAGGTC (chemistry not given here) [SEQ 5/133705]")
84
>>> reported_value("CCAGGCTGACTCAACCGCTG (chemistry not given here) [SEQ4/37501]")
87

Exam item: Lab request: please report Avg % KD qPCR under test system Connexin 43 RNA for AGGCTGTGCATGGGAGTTAG (chemistry not given here) [SEQ7/1233]
Marked response: 82

Exam item: Likewise for ATATGATCTGCAGGACCCAG (chemistry not given here) [SEQ9/50506] ?
Marked response: 79

---

test system: HUVEC cells; assay: Transfection uptake of FAM-labelled oligonucleotides (FACS); format: cell-based, Human; settings: Table 67, 4 hr post-transfection, 200 nM
Measure: % transfected, M4 (%)
Please reply with the bare figure in % and do not write the unit itself.

Consider the following illustrative entries.
>>> reported_value("GTAATTGCGGCAAGAAGAATTGTTTCTGT (DNA, phosphodiester; FAM fluorescent label attached, position not given here) [SEQ1-O]")
2
>>> reported_value("ACCCATGTTGCCTGGGCACC (chemistry not fully specified) [SEQ4-Q]")
2
>>> reported_value("GsTsAsAsTsTsGsCsGsGsCsAsAsGsAsAsGsAsAsTsTsGsTsTsTsCsTsGsT (GTAATTGCGGCAAGAAGAATTGTTTCTGT; chemistry not fully specified) [SEQ1-PTO]")
35

Let's switch to this substance now.
Exam item: Which % transfected, M4 is listed for AsCsCsCsAsTsGsTsTsGsCsCsTsGsGsGsCsAsCsC (ACCCATGTTGCCTGGGCACC; chemistry not fully specified) [SEQ4-PTO] ?
Marked response: 47

---

Recorded % transfected, M4, one value per entry.
tested on: HUVEC cells; assay: Transfection uptake of FAM-labelled oligonucleotides (FACS); type: cell-based, Human; conditions: Table 66, 4 hr post-transfection, 200 nM
Please reply with the bare figure in % and do not write the unit itself.

Exam item: Which % transfected, M4 is listed for AsCsCsCsAsTsGsTsTsGsCsCsTsGsGsGsCsAsCsC (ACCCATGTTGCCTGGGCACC; chemistry not fully specified) [SEQ4-PTO] ?
Marked response: 48

Exam item: Likewise for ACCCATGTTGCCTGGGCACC (chemistry not fully specified) [SEQ4-Q] ?
Marked response: 1

Exam item: Likewise for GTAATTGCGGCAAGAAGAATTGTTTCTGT (DNA, phosphodiester; FAM fluorescent label attached, position not given here) [SEQ1-O] ?
Marked response: 2

Exam item: Likewise for GsTsAsAsTsTsGsCsGsGsCsAsAsGsAsAsGsAsAsTsTsGsTsTsTsCsTsGsT (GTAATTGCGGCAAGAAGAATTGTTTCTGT; chemistry not fully specified) [SEQ1-PTO] ?
Marked response: 11

---

test system: HUVEC cells; assay: Transfection uptake of FAM-labelled oligonucleotides (FACS); assay type: cell-based, Human; conditions: Table 67, 4 hr post-transfection, 200 nM
Recorded % transfected, M2, one value per entry.

Consider the following illustrative entries.
>>> reported_value("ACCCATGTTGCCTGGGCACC (chemistry not fully specified) [SEQ4-Q]")
"55%"
>>> reported_value("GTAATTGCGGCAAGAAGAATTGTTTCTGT (DNA, phosphodiester; FAM fluorescent label attached, position not given here) [SEQ1-O]")
"56%"
>>> reported_value("AsCsCsCsAsTsGsTsTsGsCsCsTsGsGsGsCsAsCsC (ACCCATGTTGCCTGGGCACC; chemistry not fully specified) [SEQ4-PTO]")
"9%"

Exam item: Which % transfected, M2 is listed for GsTsAsAsTsTsGsCsGsGsCsAsAsGsAsAsGsAsAsTsTsGsTsTsTsCsTsGsT (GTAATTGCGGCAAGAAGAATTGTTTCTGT; chemistry not fully specified) [SEQ1-PTO] ?
Marked response: 15%

---

tested on: Connexin 43 RNA; test: Connexin 43 knockdown by qPCR in HUVEC; type: cell-based, human; conditions: all-thiophosphoriate linkages in the entire backbone
Measure: Absolute Difference from SEQ1 (relative knockdown)
Write the value as a bare number.

Exam item: Lab request: please report Absolute Difference from SEQ1 (relative knockdown) under test system Connexin 43 RNA for TCTCCCCAGGCTGACTCAAC (chemistry not given here) [SEQ10/37503]
Marked response: 12

Exam item: Likewise for CAGAAGCGCACATGAGAGAT (chemistry not given here) [SEQ8/47001] ?
Marked response: 15

Exam item: Likewise for CCAGGCTGACTCAACCGCTG (chemistry not given here) [SEQ4/37501] ?
Marked response: 22

---

system: HUVEC cells; test: Transfection uptake of FAM-labelled oligonucleotides (FACS); format: cell-based, Human; details: Table 67, 4 hr post-transfection, 200 nM
Measure: % transfected, Total (%)
Please reply with the bare figure in % and do not write the unit itself.

Consider the following illustrative entries.
>>> reported_value("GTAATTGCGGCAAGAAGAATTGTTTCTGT (DNA, phosphodiester; FAM fluorescent label attached, position not given here) [SEQ1-O]")
98
>>> reported_value("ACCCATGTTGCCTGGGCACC (chemistry not fully specified) [SEQ4-Q]")
99
>>> reported_value("GsTsAsAsTsTsGsCsGsGsCsAsAsGsAsAsGsAsAsTsTsGsTsTsTsCsTsGsT (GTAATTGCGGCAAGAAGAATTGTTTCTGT; chemistry not fully specified) [SEQ1-PTO]")
100

Exam item: Lab request: please report % transfected, Total under test system HUVEC cells for AsCsCsCsAsTsGsTsTsGsCsCsTsGsGsGsCsAsCsC (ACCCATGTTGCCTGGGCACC; chemistry not fully specified) [SEQ4-PTO]
Marked response: 99

---

tested on: Connexin 43; test: Connexin 43 knockdown by Western blot in HUVEC; type: cell-based, human; conditions: phosphorothioate backbone ASN
Recorded Avg % KD WB, one value per entry.
Please reply with the bare figure in % and do not write the unit itself.

Consider the following illustrative entries.
>>> reported_value("AGGCTGTGCATGGGAGTTAG (chemistry not given here) [SEQ7/1233]")
75
>>> reported_value("TCTCCCCAGGCTGACTCAAC (chemistry not given here) [SEQ10/37503]")
75
>>> reported_value("CGCTGGTCCACAATGGCTAG (chemistry not given here) [SEQ6/133705]")
75
>>> reported_value("ATATGATCTGCAGGACCCAG (chemistry not given here) [SEQ9/50506]")
73
>>> reported_value("GCTGGCTCTGCTTGAAGGTC (chemistry not given here) [SEQ 5/133705]")
75
>>> reported_value("CAGAAGCGCACATGAGAGAT (chemistry not given here) [SEQ8/47001]")
75

Let's switch to this sequence now.
Exam item: Which Avg % KD WB is listed for CCAGGCTGACTCAACCGCTG (chemistry not given here) [SEQ4/37501] ?
Marked response: 82
